Property: CLhep predicted; scope: individual compounds
- protocol: in vitro
- experimentalContext: rat, liver microsomes
readoutKind: CLhep predicted (L/h/kg)

> print(dat)
                                givensmiles      readoutkind  unitstext  resultnumber
1  CC1=C(c2cccc(O)c2)[C@H](c2ccc(OCCN3CC(CF)C3)cc2)Oc2c(O)cccc21  CLhep predicted     L/h/kg          2.58
2  CC1=C(c2ccc(F)cc2)[C@H](c2ccc(OCCN3CC(CF)C3)cc2)Oc2ccc(O)cc21  CLhep predicted     L/h/kg          1.68
3  CC1=C(c2ccc(F)cc2)[C@H](c2ccc(OCCN3CC(CF)C3)cc2)Oc2c(O)cccc21  CLhep predicted     L/h/kg          1.62
4  CCC1=C(c2cccc(O)c2)[C@H](c2ccc(OCCN3CC(CF)C3)cc2)Oc2ccc(O)cc21  CLhep predicted     L/h/kg          2.34
5  Oc1cccc(C2=Cc3cc(O)ccc3O[C@H]2c2ccc(OCCN3CC(CF)C3)cc2)c1  CLhep predicted     L/h/kg          2.16
6  CC1=C(c2ccc(F)cc2)[C@H](c2ccc(OCCN3CC(CF)C3)cc2)Oc2cc(F)c(O)cc21  CLhep predicted     L/h/kg           1.2
